- System: P100 membrane fractions derived from Caco-2 cells
- PROTOCOL: Dansylated peptide ELISA on P100: PAX2 and HAX42 peptides relative binding
- ASSAY SETUP: PAX2 peptides, ratio to ZElan021 (HAX42 = 1.00), first 20 μg/ml column
Peptide text beside a SMILES is read from it. * marks the point of attachment. Dansyl = CN(C)c1cccc2c(S(=O)(=O)*)cccc12
EXPERIMENTAL ENDPOINT: Binding value at 20 μg/ml
Returns: the value as a bare number; no unit string appended.

COMPOUND | Binding value at 20 μg/ml
CC(C)C[C@H](NC(=O)[C@H](CCCNC(=N)N)NC(=O)[C@H](CCCNC(=N)N)NC(=O)[C@H](CC(N)=O)NC(=O)[C@H](Cc1c[nH]cn1)NC(=O)[C@H](CO)NC(=O)[C@H](CO)NC(=O)[C@@H](N)CCCCNS(=O)(=O)c1cccc2c(N(C)C)cccc12)C(=O)N[C@@H](CCCNC(=N)N)C(=O)N[C@@H](C)C(=O)N[C@@H](CCCNC(=N)N)C(N)=O [ZElan081] (H-K(Dansyl)SSHNRRLRAR-NH2) | 0.01
CC(C)C[C@H](NC(=O)[C@H](CCCNC(=N)N)NC(=O)[C@H](CCCNC(=N)N)NC(=O)[C@H](CC(N)=O)NC(=O)[C@H](Cc1c[nH]cn1)NC(=O)[C@H](CO)NC(=O)[C@H](CO)NC(=O)[C@@H](N)CCCCNS(=O)(=O)c1cccc2c(N(C)C)cccc12)C(=O)N[C@@H](CCCNC(=N)N)C(=O)N[C@H](C(=O)N[C@@H](CCCNC(=N)N)C(N)=O)[C@@H](C)O [ZElan035] (H-K(Dansyl)SSHNRRLRTR-NH2) | 0.12
CC(C)C[C@H](NC(=O)[C@H](CCCNC(=N)N)NC(=O)[C@H](CCCNC(=N)N)NC(=O)[C@@H](N)CCCCNS(=O)(=O)c1cccc2c(N(C)C)cccc12)C(=O)N[C@@H](CCCNC(=N)N)C(=O)N[C@H](C(=O)N[C@@H](CCCNC(=N)N)C(=O)N[C@@H](CO)C(=O)N[C@@H](CCCNC(=N)N)C(N)=O)[C@@H](C)O [ZElan057] (H-K(Dansyl)RRLRTRSR-NH2) | 0.08
C[C@H](NC(=O)[C@H](CCCNC(=N)N)NC(=O)[C@H](CCCNC(=N)N)NC(=O)[C@H](CC(N)=O)NC(=O)[C@H](Cc1c[nH]cn1)NC(=O)[C@H](CO)NC(=O)[C@H](CO)NC(=O)[C@@H](N)CCCCNS(=O)(=O)c1cccc2c(N(C)C)cccc12)C(=O)N[C@@H](CCCNC(=N)N)C(=O)N[C@H](C(=O)N[C@@H](CCCNC(=N)N)C(N)=O)[C@@H](C)O [ZElan079] (H-K(Dansyl)SSHNRRARTR-NH2) | 0.31

Which measured Binding value at 20 μg/ml value corresponds to CC(C)C[C@H](NC(=O)[C@H](C)NC(=O)[C@H](CCCNC(=N)N)NC(=O)[C@H](CC(N)=O)NC(=O)[C@H](Cc1c[nH]cn1)NC(=O)[C@H](CO)NC(=O)[C@H](CO)NC(=O)[C@@H](N)CCCCNS(=O)(=O)c1cccc2c(N(C)C)cccc12)C(=O)N[C@@H](CCCNC(=N)N)C(=O)N[C@H](C(=O)N[C@@H](CCCNC(=N)N)C(N)=O)[C@@H](C)O [ZElan078] (H-K(Dansyl)SSHNRALRTR-NH2) ?
0.11
